# measurement_target: T1, Ep-CAM (UniProt P16422 24-265, limits assumed)
# T1 construct: Amine coupled to a CM5 chip in the Biacore assays
# T1 sequence (looked up): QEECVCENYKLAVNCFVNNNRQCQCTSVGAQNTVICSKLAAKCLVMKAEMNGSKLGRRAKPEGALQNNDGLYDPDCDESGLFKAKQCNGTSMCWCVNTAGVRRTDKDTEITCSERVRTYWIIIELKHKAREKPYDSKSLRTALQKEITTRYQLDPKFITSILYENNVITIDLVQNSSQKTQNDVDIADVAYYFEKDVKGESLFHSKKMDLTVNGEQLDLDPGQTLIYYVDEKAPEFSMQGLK
# test_name: Biacore, Fab periplasmic extract

binder: ING-1 light chain E98N (Fab, V domains shown, Fab, periplasmic extract) VH: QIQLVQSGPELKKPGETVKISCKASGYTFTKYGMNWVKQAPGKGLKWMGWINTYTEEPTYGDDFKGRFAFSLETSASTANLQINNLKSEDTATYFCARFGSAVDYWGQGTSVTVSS VL: DIVMTQAAFSNPVTLGTSGSISCRSSKSLLHSNGITYLYWYLQKPGQSPQLLIYQMSNLASGVPDRFSSSGSGTDFTLRISRVEAEDVGVYYCAQNLNLPRTFGGGTKLEMKR
binding result: no binding

binder: ING-1 light chain K27N (Fab, V domains shown, Fab, periplasmic extract) VH: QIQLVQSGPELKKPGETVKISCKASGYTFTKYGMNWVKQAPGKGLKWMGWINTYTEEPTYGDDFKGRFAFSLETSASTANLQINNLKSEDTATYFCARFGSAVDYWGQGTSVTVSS VL: DIVMTQAAFSNPVTLGTSGSISCRSSNSLLHSNGITYLYWYLQKPGQSPQLLIYQMSNLASGVPDRFSSSGSGTDFTLRISRVEAEDVGVYYCAQNLELPRTFGGGTKLEMKR
binding result: no binding

binder: ING-1 light chain K27W (Fab, V domains shown, Fab, periplasmic extract) VH: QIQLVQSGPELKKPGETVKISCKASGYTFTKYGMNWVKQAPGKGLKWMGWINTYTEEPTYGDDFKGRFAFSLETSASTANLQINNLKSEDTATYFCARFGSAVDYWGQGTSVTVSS VL: DIVMTQAAFSNPVTLGTSGSISCRSSWSLLHSNGITYLYWYLQKPGQSPQLLIYQMSNLASGVPDRFSSSGSGTDFTLRISRVEAEDVGVYYCAQNLELPRTFGGGTKLEMKR
binding result: no binding
